System: Human immunodeficiency virus
METHOD_NOTES: Fold resistance, ratio of IC50 for HIV reverse transcriptase with P236L mutant to IC50 for HIV wild type reverse transcriptase
Label True when Ratio IC50 >= 0.9; otherwise False.

hey, is Ratio IC50 for this one >= 0.9? CCc1nn(CCO)c(CC)c1Oc1cccc(C#N)c1 False

Could you tell me if the measured Ratio IC50 of CCc1nn(CCO)c(CC)c1Oc1cc(Cl)cc(Cl)c1 reaches 0.9 or more? False

Given the entry O=C1Nc2ccc(Cl)cc2[C@@](C#CC2CC2)(C(F)(F)F)O1 [EFAVIRENZ] , answer whether its Ratio IC50 meets or surpasses 0.9. True

Quick check: does CCc1nn(CCO)c(CC)c1Cc1cc(Cl)cc(Cl)c1 have Ratio IC50 greater than or equal to 0.9? False
